These measurements were taken from patent EP4781986A1.

# EXPERIMENTAL DETAILS: PK properties in monkeys with or without alkyl glycoside, intravenous route and nasal spray
# Type: in vivo, cynomolgus monkey
# PROTOCOL CONDITIONS: male, cynomolgus monkey, plasma, other: nasal spray (intranasal); cynomolgus monkeys, IN@1 mg/kg (Solvent 1, no DDM); read-out: Concentration to peak Cmax
PROPERTY LABEL: Cmax
State the result as a value with its unit after it.

Fill in reported Cmax for this entry: Cc1cc(C[C@@H](NC(=O)N2CCC(c3cc4c([nH]c3=O)SCC4)CC2)C(=O)N2CCN(C3CCN(C)CC3)CC2)cc2cn[nH]c12
13.4 ng/mL

###

# EXPERIMENTAL DETAILS: PK properties in monkeys with or without alkyl glycoside, intravenous route and nasal spray
# Format: in vivo, cynomolgus monkey
# PROTOCOL CONDITIONS: male, cynomolgus monkey, plasma, other: intranasal (nasal spray), 1 mg/kg, cynomolgus monkeys, IN@1 mg/kg (Solvent 2, 0.2% dodecyl-β-D-maltoside); read-out: Time to peak Tmax
# Description: Species: cynomolgus monkey, male, 2-5 kg. Source: Ankai Yibo (Zhanjiang) Biotechnology Co., Ltd., Laboratory Animal Production License No.: SCXK (Yue) 2019-0046. Quantity: 3 cynomolgus monkeys were intravenously administered and 3 cynomolgus monkeys were administered by a nasal spray. […] A concentration of a specified compound in plasma was determined by LC-MS/MS, and main pharmacokinetic parameters were calculated by a Winnolin 8.3 non-compartmental model. […]
PROPERTY LABEL: Tmax

Answer with the recorded Tmax of Cc1cc(C[C@@H](NC(=O)N2CCC(c3cc4c([nH]c3=O)SCC4)CC2)C(=O)N2CCN(C3CCN(C)CC3)CC2)cc2cn[nH]c12 only.
~10.2 min
